test: Selectivity index, ratio of CC50 for mock infected human MT4 cells to EC50 for HIV2 ROD infected in human MT4 cells; format: toxicity, cell-based; conditions: read-out: Ratio CC50/EC50
quantity: selectivity ratio

Illustrative cases are given below, each with its answer.
> print(dat)
                  compound.structure.string  data.value
1  Cc1cccc(Nc2cc(Oc3c(C)cc(C)cc3C)nc(Nc3ccc(C#N)cc3)n2)c1         < 1
2  Cc1cccc(Nc2cc(Oc3c(C)cc(C#N)cc3C)nc(Nc3cccc(C#N)c3)n2)c1         < 1
3  Cc1cccc(Nc2cc(Oc3c(C)cc(C)cc3C)nc(Nc3cccc(C#N)c3)n2)c1         < 1
4  Cc1cc(C)c(Oc2cc(Nc3ccc(Cl)cc3)nc(Nc3cccc(C#N)c3)n2)c(C)c1         < 1

Please state selectivity ratio for every compound in the list that follows.
1. Cc1cc(C)c(Oc2cc(Nc3ccc(C#N)cc3)nc(Nc3ccc(C#N)cc3)n2)c(C)c1
2. Cc1cc(C#N)cc(C)c1Oc1cc(Nc2ccc(Cl)cc2)nc(Nc2ccc(C#N)cc2)n1
3. Cc1ccc(Nc2nc(Nc3cccc(C)c3)cc(Oc3c(C)cc(C#N)cc3C)n2)cc1

1: < 1; 2: < 1; 3: < 1

====

assay: Selectivity index, ratio of CC50 for mock infected human MT4 cells to EC50 for HIV1 3B infected in human MT4 cells; type: toxicity, cell-based; settings: read-out: Ratio CC50/EC50
Where a name gives a salt, the structure may show the parent alone.
For each record, write down the corresponding selectivity ratio.

Please look at the items below and tell me selectivity ratio for each one, in order.
1. Cc1ccc(Nc2nc(Nc3ccc(C#N)cc3)cc(Oc3c(C)cc(C)cc3C)n2)cc1
2. Cc1ccc(Nc2nc(Nc3ccc(C#N)cc3)cc(Oc3c(C)cc(C#N)cc3C)n2)cc1
3. CC(C)Nc1cccnc1N1CCN(C(=O)c2cc3cc(NS(C)(=O)=O)ccc3[nH]2)CC1 [DELAVIRDINE MESYLATE]
4. Cc1ccc(Nc2nc(Nc3cccc(C)c3)cc(Oc3c(C)cc(C#N)cc3C)n2)cc1
5. Nc1ccn([C@H]2CS[C@@H](CO)O2)c(=O)n1
6. Cc1cc(C)c(Oc2cc(Nc3ccc(Cl)cc3)nc(Nc3ccc(C#N)cc3)n2)c(C)c1

1. < 1
2. < 1
3. 1080
4. < 1
5. > 34
6. ≤ 4

====

Consider the following compounds; for each one, report its selectivity ratio.
test: Selectivity index, ratio of CC50 for mock infected human MT4 cells to EC50 for HIV1 RES056 harboring reverse transcriptase K103N/[…] double mutant infected in human MT4 cells; format: toxicity, cell-based; settings: read-out: Ratio CC50/EC50

Previously resolved entries follow.
> print(dat)
                  compound.structure.string           quantity  data.value
1  Cc1cccc(Nc2cc(Oc3c(C)cc(C)cc3C)nc(Nc3ccc(C#N)cc3)n2)c1  selectivity ratio         < 1
2  Cc1cc(C)c(Oc2cc(Nc3ccc(Cl)cc3)nc(Nc3ccc(C#N)cc3)n2)c(C)c1  selectivity ratio         < 1
3  Cc1cccc(Nc2cc(Oc3c(C)cc(C#N)cc3C)nc(Nc3ccc(C#N)cc3)n2)c1  selectivity ratio         < 1
4  Cc1cc(C)c(Oc2cc(Nc3ccc(C#N)cc3)nc(Nc3ccc(C#N)cc3)n2)c(C)c1  selectivity ratio         < 1

What does the data say about its selectivity ratio? Entry: Cc1ccc(Nc2nc(Nc3ccc(Cl)cc3)cc(Oc3c(C)cc(C#N)cc3C)n2)cc1
1

====

Give measured selectivity ratio for each item. Keep answers brief.
assay: Selectivity index, ratio of CC50 for mock infected human MT4 cells to EC50 for HIV1 3B infected in human MT4 cells; format: toxicity, cell-based; conditions: read-out: Ratio CC50/EC50

> print(dat)
                  compound.structure.string           quantity  data.value
1  O=C1Nc2ccc(Cl)cc2[C@@](C#CC2CC2)(C(F)(F)F)O1  selectivity ratio      > 1210
2  Cc1cccc(Nc2cc(Oc3c(C)cc(C)cc3C)nc(Nc3cccc(C#N)c3)n2)c1  selectivity ratio         < 1
3  Cc1cc(C)c(Oc2cc(Nc3ccc(Cl)cc3)nc(Nc3cccc(C#N)c3)n2)c(C)c1  selectivity ratio         < 1
4  Cc1ccc(Nc2nc(Nc3cccc(C)c3)cc(Oc3c(C)cc(C)cc3C)n2)cc1  selectivity ratio         < 1

I'd like to know its selectivity ratio. The compound in question is O=c1[nH]cnc2c1ncn2[C@H]1CC[C@@H](CO)O1
> 3

====

experiment: Cytotoxicity against mock infected human MT4 cells after 4 days by MTT assay; type: cell-based
Counter-ions that a name gives are not always drawn.
Give measured CC50 at 96 h for each item. Keep answers brief.
Give bare numbers, in µM.

> print(dat)
                                   compound  data.value
1  Cc1ccc(Nc2nc(Nc3cccc(C)c3)cc(Oc3c(C)cc(C)cc3C)n2)cc1          51
2  Cc1cccc(Nc2cc(Oc3c(C)cc(C)cc3C)nc(Nc3cccc(C#N)c3)n2)c1        25.8
3  Cc1cccc(Nc2cc(Oc3c(C)cc(C)cc3C)nc(Nc3ccc(C#N)cc3)n2)c1        24.1
4  Cc1cc(C#N)cc(C)c1Oc1nc(Nc2ccc(C#N)cc2)nc(N)c1Br [ETRAVIRINE]        2.16

List CC50 at 96 h for every entry below, keeping the order given.
1. Cc1ccc(Nc2nc(Nc3ccc(C#N)cc3)cc(Oc3c(C)cc(C#N)cc3C)n2)cc1
2. Cc1cc(C)c(Oc2cc(Nc3ccc(C#N)cc3)nc(Nc3cccc(C#N)c3)n2)c(C)c1
3. Cc1cc(C)c(Oc2cc(Nc3ccc(Cl)cc3)nc(Nc3cccc(C#N)c3)n2)c(C)c1
4. Cc1cc(C)c(Oc2cc(Nc3ccc(Cl)cc3)nc(Nc3ccc(C#N)cc3)n2)c(C)c1
5. CC(C)Nc1cccnc1N1CCN(C(=O)c2cc3cc(NS(C)(=O)=O)ccc3[nH]2)CC1 [DELAVIRDINE MESYLATE]

1. 8.53
2. 5.38
3. 12
4. 6.68
5. 28.2

// for each compound below, give its CC50 at 96 h
1. Cc1cccc(Nc2cc(Oc3c(C)cc(C#N)cc3C)nc(Nc3ccc(C#N)cc3)n2)c1
2. Cc1cc(C#N)cc(C)c1Oc1cc(Nc2ccc(C#N)cc2)nc(Nc2cccc(C#N)c2)n1
3. Cc1cc(C#N)cc(C)c1Oc1cc(Nc2ccc(Cl)cc2)nc(Nc2cccc(C#N)c2)n1
4. Cc1cc(C#N)cc(C)c1Oc1cc(Nc2ccc(Cl)cc2)nc(Nc2ccc(C#N)cc2)n1
5. Cc1cccc(Nc2cc(Oc3c(C)cc(C#N)cc3C)nc(Nc3cccc(C#N)c3)n2)c1
6. Cc1ccc(Nc2nc(Nc3cccc(C)c3)cc(Oc3c(C)cc(C#N)cc3C)n2)cc1

1. 2.96
2. 2.73
3. 3.15
4. 3.28
5. 2.89
6. 17.3

// each listed compound needs a value for CC50 at 96 h
1. Cc1ccc(Nc2nc(Nc3ccc(Cl)cc3)cc(Oc3c(C)cc(C)cc3C)n2)cc1
2. Cc1ccc(Nc2nc(Nc3ccc(C#N)cc3)cc(Oc3c(C)cc(C)cc3C)n2)cc1
3. Cc1cc(C#N)cc(C)c1Oc1cc(Nc2ccc(C#N)cc2)nc(Nc2ccc(C#N)cc2)n1
4. Cc1cc(C)c(Oc2cc(Nc3ccc(C#N)cc3)nc(Nc3ccc(C#N)cc3)n2)c(C)c1

[48.2, 27.1, 13, 5.98]

====

assay: Selectivity index, ratio of CC50 for mock infected human MT4 cells to EC50 for HIV1 3B infected in human MT4 cells; format: toxicity, cell-based; conditions: read-out: Ratio CC50/EC50
quantity: selectivity ratio
Give bare numbers.

Previously resolved entries follow.
> print(dat)
                  compound.structure.string  data.value
1  Cc1cccc(Nc2cc(Oc3c(C)cc(C#N)cc3C)nc(Nc3ccc(C#N)cc3)n2)c1           4
2  Cc1cc(C#N)cc(C)c1Oc1cc(Nc2ccc(C#N)cc2)nc(Nc2ccc(C#N)cc2)n1         117

Hi, could you look up selectivity ratio for each item in my list?
1. Cc1cc(C#N)cc(C)c1Oc1cc(Nc2ccc(Cl)cc2)nc(Nc2ccc(C#N)cc2)n1
2. Cc1cc(C)c(Oc2cc(Nc3ccc(C#N)cc3)nc(Nc3ccc(C#N)cc3)n2)c(C)c1

[4, 8]

====

For each of the compounds below, state its selectivity ratio.
test: Selectivity index, ratio of CC50 for mock infected human MT4 cells to EC50 for HIV1 RES056 harboring reverse transcriptase K103N/[…] double mutant infected in human MT4 cells; format: toxicity, cell-based; settings: read-out: Ratio CC50/EC50
Counter-ions that a name gives are not always drawn.

Completed entries (count: 4):
> print(dat)
                                   compound  data.value
1  Cc1cn([C@H]2C[C@H](N=[N+]=[N-])[C@@H](CO)O2)c(=O)[nH]c1=O       > 448
2  O=C1Nc2ccc(Cl)cc2[C@@](C#CC2CC2)(C(F)(F)F)O1        > 28
3  Cc1cc(C#N)cc(C)c1Oc1cc(Nc2ccc(Cl)cc2)nc(Nc2ccc(C#N)cc2)n1         < 1
4  Cc1cc(C#N)cc(C)c1Oc1cc(Nc2ccc(C#N)cc2)nc(Nc2ccc(C#N)cc2)n1           2

Then this compound:
Which selectivity ratio value is on record for CC(C)Nc1cccnc1N1CCN(C(=O)c2cc3cc(NS(C)(=O)=O)ccc3[nH]2)CC1 [DELAVIRDINE MESYLATE] ?
< 1
